- measuredTarget: human CD33 V73A (human, UniProt P20138 18-364)
- Sequence (P20138 18-364 V73A limits assumed): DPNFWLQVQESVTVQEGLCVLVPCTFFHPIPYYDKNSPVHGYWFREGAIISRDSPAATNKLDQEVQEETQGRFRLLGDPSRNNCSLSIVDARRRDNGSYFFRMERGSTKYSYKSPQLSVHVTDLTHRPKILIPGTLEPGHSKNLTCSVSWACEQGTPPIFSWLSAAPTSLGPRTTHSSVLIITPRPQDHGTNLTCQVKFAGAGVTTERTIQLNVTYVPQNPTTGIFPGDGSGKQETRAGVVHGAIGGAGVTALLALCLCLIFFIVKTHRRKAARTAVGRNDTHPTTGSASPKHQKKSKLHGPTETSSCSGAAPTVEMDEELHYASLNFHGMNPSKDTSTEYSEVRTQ
- runDescription: alanine scan, flow cytometry;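 also: HEK293-T cells transiently expressing single-residue alanine mutants of CD33 (alanine swapped to serine), antibody binding read by fluorescence in duplicate, background-subtracted, expressed relative to wild-type CD33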
measuredMetric: Mean % WT Binding (% WT)
Just the number in % WT, nothing appended.

Prompt: Entry under review: Refmab #4 (antibody, V domains shown, Full-length format is human IgG1 Fc silent (PG-LALA); The alanine scan used IgG or Fab) VH: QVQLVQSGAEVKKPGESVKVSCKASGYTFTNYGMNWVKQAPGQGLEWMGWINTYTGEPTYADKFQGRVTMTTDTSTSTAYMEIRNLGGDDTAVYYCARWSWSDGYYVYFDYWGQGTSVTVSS VL: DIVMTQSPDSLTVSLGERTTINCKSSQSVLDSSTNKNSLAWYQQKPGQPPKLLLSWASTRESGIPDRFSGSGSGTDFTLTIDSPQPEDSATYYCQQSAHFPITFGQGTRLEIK . Reported Mean % WT Binding?
Response: 67.2
